Data origin, for the record: PubChem BioAssay AID1159580

Protocol Notes: chemical genetic growth profiling, strain panel (AID 1159580);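 also: tested at 20 µM; growth read once vehicle control cultures reached saturation at 30 °C; lower values mean less growth of the strain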
Assay Context: S. cerevisiae deletion strains, growth OD, locus YJL129C, strain trk1
The whole screen tested about 5,500 compounds, of which about 2,000 (36%) were called active. Roughly 18% stayed inconclusive and do not appear here. Rule as the data show it: active = normalized growth mostly below about 0.91 (no sharp cut-off); inconclusive = no clear call, values can overlap the other calls; inactive = mostly above about 0.92. Some of the results follow.
Field 'call' accepts active, inactive

Study these solved cases before continuing.
Compound	Group Label
CCC1(C)CC(=O)NC1=O (stereo not given)	inactive
CC(=O)O[C@H]1C(=O)[C@@]2(C)C([C@H](OC(=O)c3ccccc3)[C@]3(O)C[C@H](OC(=O)[C@H](O)[C@@H](NC(=O)c4ccccc4)c4ccccc4)C(C)=C1C3(C)C)[C@]1(OC(C)=O)CO[C@@H]1C[C@@H]2O (stereo not given in full)	inactive
Cc1cc(=O)c2c(O)c(C)c(O)cc2o1	inactive

Consider now this further compound.
Give the logged outcome of this assay for the following compound: Cc1cccc(Nc2cc(Cl)nc(SCC(=O)O)n2)c1C inactive
